# Study System: PDGFR-β (Homo sapiens)
# Sequence (P09619 33-1106): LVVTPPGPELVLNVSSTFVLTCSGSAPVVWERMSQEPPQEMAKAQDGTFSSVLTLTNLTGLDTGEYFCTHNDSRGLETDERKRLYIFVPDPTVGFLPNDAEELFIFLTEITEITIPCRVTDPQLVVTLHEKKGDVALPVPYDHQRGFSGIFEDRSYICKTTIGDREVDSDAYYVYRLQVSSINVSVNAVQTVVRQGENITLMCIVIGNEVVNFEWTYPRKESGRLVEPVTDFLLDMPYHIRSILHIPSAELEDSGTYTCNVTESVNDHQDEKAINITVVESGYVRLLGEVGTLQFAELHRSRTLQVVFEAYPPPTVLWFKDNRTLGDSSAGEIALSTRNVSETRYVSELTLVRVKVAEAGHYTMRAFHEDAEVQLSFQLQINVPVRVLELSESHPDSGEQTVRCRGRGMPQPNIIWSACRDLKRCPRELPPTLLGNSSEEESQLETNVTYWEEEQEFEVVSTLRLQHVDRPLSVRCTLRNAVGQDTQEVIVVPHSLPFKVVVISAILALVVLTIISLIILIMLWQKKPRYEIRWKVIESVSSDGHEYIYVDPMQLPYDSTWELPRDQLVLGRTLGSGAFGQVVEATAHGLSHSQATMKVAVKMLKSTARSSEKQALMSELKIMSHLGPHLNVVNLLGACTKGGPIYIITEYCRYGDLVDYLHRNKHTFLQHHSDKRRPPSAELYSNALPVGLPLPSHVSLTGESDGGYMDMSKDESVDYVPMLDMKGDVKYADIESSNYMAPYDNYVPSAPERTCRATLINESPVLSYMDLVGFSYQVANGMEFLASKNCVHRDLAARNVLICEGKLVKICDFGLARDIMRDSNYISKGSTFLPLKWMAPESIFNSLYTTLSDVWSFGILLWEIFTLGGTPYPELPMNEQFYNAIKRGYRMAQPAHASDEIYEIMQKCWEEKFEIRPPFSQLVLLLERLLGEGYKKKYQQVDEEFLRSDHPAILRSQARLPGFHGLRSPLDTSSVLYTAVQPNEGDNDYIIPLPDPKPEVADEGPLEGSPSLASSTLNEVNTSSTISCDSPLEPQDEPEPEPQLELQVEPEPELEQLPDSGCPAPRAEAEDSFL
# Measurement Protocol: Biochemical PDGFR assay (ELISA, PDGFR-β expressing NIH 3T3 cell lysate)
# Recorded Conditions: read-out: bio PDGF IC50
Threshold-based label: IC50 under 20 µM gives T, IC50 not under 20 µM gives F.

Example entries and their recorded answers appear below.
Compound: CCOC(=O)c1c(C)[nH]c(/C=C2\C(=O)Nc3cccc(CCO)c32)c1CCCN1CCOCC1
Label: F
//
Compound: COc1ccc(/C=C2/C(=O)Nc3ccccc32)cc1-c1ccsc1
Label: F
//
Compound: COc1ccc(C=C2C(=O)Nc3cc(NC(C)=O)ccc32)cc1-c1cccc(NC(C)=O)c1 (mixture of isomers)
Label: F

Determine whether this compound shows IC50 lower than 20 µM (ties excluded): `CC(C)c1cc(/C=C2/C(=O)Nc3ccc(Cl)cc32)cc(C(C)C)c1OCCN1CCOCC1`
F

What would you report for `Cc1c(/C=C2\C(=O)Nc3ccc(Br)cc32)[nH]c2ccccc12` ?
F

====

# Study System: human flk-1 (Homo sapiens)
# Construct: host or cells: Flk-1/NIH cells (NIH fibroblasts)
# Sequence (P35968 20-1356): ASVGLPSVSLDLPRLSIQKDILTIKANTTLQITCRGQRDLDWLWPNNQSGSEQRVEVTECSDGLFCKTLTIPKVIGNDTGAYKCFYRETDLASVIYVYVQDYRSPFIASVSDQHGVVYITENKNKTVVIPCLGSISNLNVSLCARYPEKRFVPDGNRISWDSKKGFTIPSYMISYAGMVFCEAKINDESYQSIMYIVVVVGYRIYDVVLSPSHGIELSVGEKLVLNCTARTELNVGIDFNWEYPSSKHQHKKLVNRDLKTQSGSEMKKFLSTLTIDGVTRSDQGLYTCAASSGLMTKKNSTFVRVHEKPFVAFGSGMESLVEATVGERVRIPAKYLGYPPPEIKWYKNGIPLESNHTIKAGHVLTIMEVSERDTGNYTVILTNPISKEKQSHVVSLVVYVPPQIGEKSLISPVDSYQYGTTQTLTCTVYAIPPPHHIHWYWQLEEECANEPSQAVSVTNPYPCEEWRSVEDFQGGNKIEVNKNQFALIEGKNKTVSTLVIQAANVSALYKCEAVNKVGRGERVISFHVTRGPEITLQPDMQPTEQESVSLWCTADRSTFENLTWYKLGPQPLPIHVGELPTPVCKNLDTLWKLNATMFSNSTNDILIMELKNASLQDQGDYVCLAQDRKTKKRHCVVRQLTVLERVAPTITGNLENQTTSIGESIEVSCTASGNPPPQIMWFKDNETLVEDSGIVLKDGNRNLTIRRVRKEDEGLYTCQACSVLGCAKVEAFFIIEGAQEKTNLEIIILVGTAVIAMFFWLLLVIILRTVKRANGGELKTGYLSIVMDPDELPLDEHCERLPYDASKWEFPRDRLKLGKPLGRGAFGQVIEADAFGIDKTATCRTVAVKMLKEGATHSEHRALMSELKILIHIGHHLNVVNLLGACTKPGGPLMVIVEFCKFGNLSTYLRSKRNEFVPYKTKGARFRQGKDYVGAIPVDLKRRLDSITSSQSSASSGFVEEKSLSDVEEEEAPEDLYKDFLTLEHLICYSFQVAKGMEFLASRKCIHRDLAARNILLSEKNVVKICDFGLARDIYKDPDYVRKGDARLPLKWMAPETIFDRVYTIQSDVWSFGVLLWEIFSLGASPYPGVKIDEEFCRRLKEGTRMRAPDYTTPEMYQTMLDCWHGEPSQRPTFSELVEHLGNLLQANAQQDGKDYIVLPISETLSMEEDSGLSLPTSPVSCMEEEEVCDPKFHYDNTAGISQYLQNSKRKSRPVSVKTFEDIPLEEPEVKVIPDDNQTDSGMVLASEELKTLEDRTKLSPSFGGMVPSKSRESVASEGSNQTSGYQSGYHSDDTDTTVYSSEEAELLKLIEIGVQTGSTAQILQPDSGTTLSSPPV
# Measurement Protocol: Biochemical FLK-1 assay (flk-1 autophosphorylation ELISA)
# Recorded Conditions: read-out: bio FLK1 IC50 (μM) % if inhibition at 100
Observed Property: IC50

Some solved entries appear below for comparison.
Compound: CN(C)CCCc1c(/C=C2\C(=O)Nc3ccccc32)[nH]c2c1CCCC2 [Example 198]
Study System: human flk-1 (Homo sapiens)
IC50: 7.44 µM
--
Compound: CN(C)C(=O)CCc1c(/C=C2\C(=O)Nc3ccccc32)[nH]c2c1CCCC2 [Example 197]
Study System: human flk-1 (Homo sapiens)
IC50: 2.1 µM

So what IC50 did COc1ccc2c(c1)NC(=O)/C2=C\c1[nH]c2c(c1CCC(=O)O)CCCC2 [Example 196] get with human flk-1 (Homo sapiens)?
0.89 µM

Field entry: COc1ccccc1-c1ccc2c(c1)NC(=O)/C2=C\c1[nH]c2c(c1CCC(=O)O)CCCC2 [Example 207]
2.72 µM

Here is the next compound: COc1c(C(C)C)cc(/C=C2/C(=O)Nc3ccccc32)cc1C(C)C [Example 1]
> 50 µM

Note, next up: CCOc1cccc(-c2ccc3c(c2)NC(=O)/C3=C\c2[nH]cc(C)c2CCC(=O)O)c1 [Example 224]
1 µM

Check O=C(O)CCc1c(/C=C2\C(=O)Nc3cc(Cl)ccc32)[nH]c2c1CCCC2 [Example 195] too.
0.03 µM

====

# Study System: chimeric receptor containing the EGFR extracellular domain and intracellular HER2 kinase domain (Homo sapiens)
# Construct: fused on or other part: EGFR ectodomain + HER2 intracellular part, ATP-site indolinones: HER2's kinase
# Sequence (P04626 720-1255 limits assumed, change not shown): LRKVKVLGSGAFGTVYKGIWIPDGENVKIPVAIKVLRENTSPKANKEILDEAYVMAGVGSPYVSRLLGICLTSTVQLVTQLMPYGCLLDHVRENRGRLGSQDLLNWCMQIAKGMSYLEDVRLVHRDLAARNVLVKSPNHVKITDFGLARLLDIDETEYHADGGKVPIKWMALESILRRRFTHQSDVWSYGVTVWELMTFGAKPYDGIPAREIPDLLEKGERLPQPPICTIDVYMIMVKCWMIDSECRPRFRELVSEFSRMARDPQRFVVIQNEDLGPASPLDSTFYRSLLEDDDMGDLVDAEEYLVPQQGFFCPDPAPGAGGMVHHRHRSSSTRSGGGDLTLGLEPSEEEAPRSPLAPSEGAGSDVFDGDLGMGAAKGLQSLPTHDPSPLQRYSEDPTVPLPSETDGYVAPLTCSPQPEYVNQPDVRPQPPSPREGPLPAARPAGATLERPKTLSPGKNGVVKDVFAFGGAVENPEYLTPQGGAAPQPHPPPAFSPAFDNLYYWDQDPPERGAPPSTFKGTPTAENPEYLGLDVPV
# Measurement Protocol: EGF Receptor-HER2 chimeric receptor assay in whole cells (ELISA)
# Recorded Conditions: read-out: HER-2 kinase IC50
Observed Property: pIC50
When answering, recall that pIC50 equals minus log10 of the concentration in mol/L, and write that number alone.

Some compounds with known pIC50 results, for comparison:
Compound: CC(=O)Nc1ccc2c(c1)NC(=O)/C2=C/c1ccc(OCCN2CCOCC2)c(C2CCCCC2)c1 [Example 16]
Observed Property: pIC50
Obs Value: 5.00
--
Compound: COc1ccc(C=C2C(=O)Nc3ccccc32)cc1-c1cccc(NC(C)=O)c1 [Example 29]
Observed Property: pIC50
Obs Value: 4.77
--
Compound: COc1c(C(C)C)cc(/C=C2/C(=O)Nc3cc(NC(C)=O)ccc32)cc1C(C)C [Example 3]
Observed Property: pIC50
Obs Value: 5.19

Query (compound): COc1ccc(/C=C2/C(=O)Nc3ccc(CCN4CCOCC4)cc32)cc1-c1ccsc1 [Example 26] ; field requested: pIC50
4.82

For CC(=O)Nc1ccc2c(c1)NC(=O)/C2=C/c1ccc(OCCN2CCOCC2)c(-c2ccsc2)c1 [Example 50] then?
4.17

Would you kindly repeat that for COc1ccc(/C=C2/C(=O)Nc3ccccc32)cc1-c1ccsc1 [Example 35] ?
4.68

Follow-up entry: CC1(C)CCc2cc(/C=C3/C(=O)Nc4ccc(F)cc43)ccc2O1 [Example 23]
4.48

Let us now turn to COc1cc(C=C2C(=O)Nc3ccccc32)c(-c2ccccc2OC)cc1OC [Example 49]
4.18

====

# Study System: EGFR (Homo sapiens)
# Measurement Protocol: EGFR assay (cellular ELISA, NIH 3T3/C7 cells)
# Assay type: cell-based
# Parameters: expressed in transfected cells; host or cells: NIH 3T3/C7
# Recorded Conditions: read-out: cell EGF IC50
Reported IC50 by item:

Past entries and their recorded results:
Molecule: CCOC(=O)c1c(C)[nH]c(/C=C2\C(=O)Nc3cc(-c4ccccc4OC)ccc32)c1CCC(=O)O [Example 110]
Observed Property: IC50
Obs Value: > 100 µM
//
Molecule: CC1(C)CCc2cc(/C=C3/C(=O)Nc4ccc(Cl)cc43)ccc2O1 [Example 15]
Observed Property: IC50
Obs Value: 46.5 µM
//
Molecule: COc1cccc(-c2cc(OC)c(OC)cc2/C=C2/C(=O)Nc3ccc(Cl)cc32)c1 [Example 61]
Observed Property: IC50
Obs Value: > 100 µM
//
Molecule: COc1ccc(C=C2C(=O)Nc3cc(NC(C)=O)ccc32)cc1-c1cccc(NC(C)=O)c1 (mixture of isomers) [Example 63]
Observed Property: IC50
Obs Value: > 100 µM

Need IC50 of COc1c(C(C)C)cc(/C=C2/C(=O)Nc3ccc(C)cc32)cc1C(C)C [Example 19] , thanks.
34.8 µM

How about COc1ccc(/C=C2\C(=O)Nc3cccc(C)c32)cc1C1CCCCC1 [Example 68] ?
> 100 µM

Try the molecule Cc1c[nH]c(/C=C2\C(=O)Nc3ccc(Cl)cc32)c1CCC(=O)O [Example 216]
> 100 µM

Now the same for O=C1Nc2ccc(N=Cc3cc4ccccc4[nH]3)cc2C1=Cc1cc2ccccc2[nH]1 [Example 171]
> 100 µM

====

# Study System: EGFR (Homo sapiens, UniProt P00533)
# Sequence (P00533 25-1210): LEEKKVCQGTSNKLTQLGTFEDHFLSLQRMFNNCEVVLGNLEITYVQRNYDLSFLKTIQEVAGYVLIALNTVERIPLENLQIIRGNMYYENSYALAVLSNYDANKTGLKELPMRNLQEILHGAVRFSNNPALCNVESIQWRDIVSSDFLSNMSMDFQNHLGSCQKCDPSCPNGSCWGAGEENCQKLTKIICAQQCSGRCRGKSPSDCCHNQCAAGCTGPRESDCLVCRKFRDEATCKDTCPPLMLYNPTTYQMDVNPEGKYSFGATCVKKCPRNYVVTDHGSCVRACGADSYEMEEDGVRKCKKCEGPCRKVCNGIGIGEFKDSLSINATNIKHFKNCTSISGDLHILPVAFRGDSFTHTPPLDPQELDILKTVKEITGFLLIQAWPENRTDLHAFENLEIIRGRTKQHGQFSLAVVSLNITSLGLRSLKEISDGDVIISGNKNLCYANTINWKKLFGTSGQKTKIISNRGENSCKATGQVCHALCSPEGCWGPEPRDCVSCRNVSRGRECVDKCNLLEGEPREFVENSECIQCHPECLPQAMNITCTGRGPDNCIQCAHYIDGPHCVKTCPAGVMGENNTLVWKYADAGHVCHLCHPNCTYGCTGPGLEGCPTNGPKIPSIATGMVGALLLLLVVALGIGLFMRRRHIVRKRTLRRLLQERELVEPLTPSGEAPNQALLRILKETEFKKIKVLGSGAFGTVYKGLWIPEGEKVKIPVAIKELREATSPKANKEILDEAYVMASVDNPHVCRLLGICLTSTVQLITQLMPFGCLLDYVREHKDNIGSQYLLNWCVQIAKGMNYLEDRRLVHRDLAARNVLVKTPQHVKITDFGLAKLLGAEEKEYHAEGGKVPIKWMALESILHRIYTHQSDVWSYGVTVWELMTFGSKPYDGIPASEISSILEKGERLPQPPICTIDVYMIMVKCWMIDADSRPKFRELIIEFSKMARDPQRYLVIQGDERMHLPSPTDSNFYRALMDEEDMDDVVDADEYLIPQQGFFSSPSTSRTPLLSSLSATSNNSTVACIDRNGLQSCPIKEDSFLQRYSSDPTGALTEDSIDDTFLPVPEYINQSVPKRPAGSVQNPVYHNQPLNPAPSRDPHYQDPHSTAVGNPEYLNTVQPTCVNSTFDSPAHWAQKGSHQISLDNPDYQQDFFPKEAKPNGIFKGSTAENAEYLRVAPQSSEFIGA
# Measurement Protocol: Biochemical EGFR assay (ELISA, A431 cell lysate)
# Parameters: A431 cell lysate (Screening Lab, SUGEN, Inc.); host or cells: A431
# Recorded Conditions: read-out: bio EGFr IC50
Items are presented alongside their recorded IC50.

These solved cases illustrate the format of a correct answer.
Cpd Smiles: Cc1cc(CCC(=O)O)c(/C=C2\C(=O)Nc3ccc(Cl)cc32)[nH]1
Study System: EGFR (Homo sapiens, UniProt P00533)
IC50: > 100 µM
//
Cpd Smiles: Nc1ccc2c(c1)/C(=C/c1ccc3[nH]ccc3c1)C(=O)N2
Study System: EGFR (Homo sapiens, UniProt P00533)
IC50: > 100 µM

IC50 of `O=C1Nc2ccc(C(=O)O)cc2/C1=C/c1ccc2[nH]ccc2c1` on EGFR (Homo sapiens, UniProt P00533)?
6.13 µM

Let us now turn to `O=C(CCc1c(/C=C2\C(=O)Nc3ccccc32)[nH]c2c1CCCC2)NCCN1CCOCC1`
> 100 µM

Would you kindly repeat that for `O=C(O)CCc1c(/C=C2\C(=O)Nc3ccc(Cl)cc32)[nH]c2c1CCCC2` ?
> 100 µM

Now try `COc1ccc(/C=C2/C(=O)Nc3cc(NC(C)=O)ccc32)cc1-c1cccs1` .
> 100 µM

And `COc1ccc(/C=C2/C(=O)Nc3ncccc32)cc1C1CCCCC1` ?
11.8 µM

Further, for `NS(=O)(=O)c1ccc2c(c1)/C(=C/c1c[nH]c3ccccc13)C(=O)N2` ?
> 100 µM

One more compound: `COc1ccc(/C=C2/C(=O)Nc3ccc(F)cc32)cc1C(C)C`
> 100 µM

====

Known IC50 of a selection of compounds
# Study System: 3T3 cell line genetically engineered to express human EGF-R (Homo sapiens)
# Measurement Protocol: EGF-induced BrdU incorporation assay
# Recorded Conditions: read-out: BrdU EGF driven IC50

Example compounds with recorded IC50:
Compound: CC1(C)CCc2cc(C=C3C(=O)Nc4ccc(Br)cc43)ccc2O1 (racemic) [Example 34]
IC50: 11 µM
--
Compound: COc1cc(/C=C2/C(=O)Nc3ccccc32)c(-c2ccc3ccccc3c2)cc1OC [Example 62]
IC50: > 50 µM

Tell me reported IC50 for COc1ccc(/C=C2/C(=O)Nc3ccc(Br)cc32)cc1-c1ccccc1 [Example 13] , tested with 3T3 cell line genetically engineered to express human EGF-R (Homo sapiens).
26.6 µM

Now give it for COc1ccc(/C=C2/C(=O)Nc3cc(NC(C)=O)ccc32)cc1-c1cccs1 [Example 31] too.
38.6 µM

====

# Study System: EGFR (Homo sapiens)
# Measurement Protocol: EGFR assay (cellular ELISA, NIH 3T3/C7 cells)
# Assay type: cell-based
# Design: expressed in transfected cells; host or cells: NIH 3T3/C7
# Recorded Conditions: read-out: cell EGF IC50
Observed Property: IC50

Compound: Cc1c[nH]c(C=C2C(=O)Nc3cc(Cl)ccc32)c1CCC(=O)O
Study System: EGFR (Homo sapiens)
Observed Property: IC50
Obs Value: > 100 µM

// below: IC50 requested for another compound
Need IC50 of `COc1ccc(/C=C2/C(=O)Nc3ccc(F)cc32)cc1C1CCCCC1` , thanks.
> 100 µM

Reference source for all entries: patent US6855730B2
